system: Hedgehog Signaling Pathway; test: Gli-Luc reporter gene cell assay in C3H10T1/2/Gli-Luc cells stimulated with Shh; format: cell-based, mouse; settings: Mus musculus, C3H 10T1/2, 24 h, 30 nM Shh, luciferase activity (RLU), read-out: IC50 values of compounds that inhibit Hh pathway
Decision: IC50 beneath 0.5 nM gives yes; IC50 meeting or exceeding 0.5 nM gives no.

[
  {
    "Compound": "C[C@@H]1CN(c2ccc(C(=O)Nc3ccc(Cl)c(-c4ncc(-c5cccs5)[nH]4)c3)c(C(F)(F)F)c2)C[C@H](C)N1C [Example 155]",
    "Class name": "yes"
  },
  {
    "Compound": "C[C@@H]1CN(c2ccc(C(=O)Nc3ccc(Cl)c(-c4nc5ccccc5[nH]4)c3)c(C(F)(F)F)c2)C[C@H](C)N1C [Example 119]",
    "Class name": "yes"
  },
  {
    "Compound": "Cc1cc(-c2ccc(C(F)(F)F)cc2)ccc1C(=O)Nc1ccc(Cl)c(-c2ncc(-c3ccco3)[nH]2)c1 [Example 79]",
    "Class name": "no"
  },
  {
    "Compound": "Cc1cc(N2C[C@@H](C)N(C)[C@@H](C)C2)ccc1C(=O)Nc1ccc(Cl)c(-c2ncc(-c3cccn3C)[nH]2)c1 [Example 161]",
    "Class name": "yes"
  },
  {
    "Compound": "Cc1cc(N2C[C@@H](C)N(C)[C@@H](C)C2)ccc1C(=O)Nc1ccc(Cl)c(-c2ncc(C3CCCC3)[nH]2)c1 [Example 183]",
    "Class name": "no"
  },
  {
    "Compound": "CC(C)N1[C@H](C)CN(c2ccc(C(=O)Nc3ccc(Cl)c(-c4ncc(-c5cccs5)[nH]4)c3)c(Cl)c2)C[C@@H]1C [Example 159]",
    "Class name": "yes"
  }
]
